PROTOCOL_TEXT: refractive index (Na D-line) (dimensionless)
COND: 318.15 K; 101.33 kPa; Liquid; Standard Abbe refractometry
PARAMETER_MEASURED: refractive index

CC(=O)[O-].CCn1cc[nH+]c1 [1-ethyl-1H-imidazolium acetate]: 1.44985
CC(=O)[O-].CCCCn1cc[n+](C)c1 [1-butyl-3-methylimidazolium acetate]: 1.48297
CC(=O)O.CCN(C)C [N,N-dimethylethanamine acetate]: 1.41156
CC(=O)[O-].CCn1cc[n+](C)c1 [1-ethyl-3-methylimidazolium acetate]: 1.49447
CC(=O)[O-].CCCC[N+]1(C)CCCC1 [1-butyl-1-methylpyrrolidinium acetate]: 1.46461

###

COND: 333.15 K; 101.33 kPa; Liquid; Vibrating tube method
PARAMETER_MEASURED: mass density (kg/m3)

CC(=O)O.CCN(C)C [N,N-dimethylethanamine acetate]: 989
CC(=O)[O-].CCCC[N+]1(C)CCCC1 [1-butyl-1-methylpyrrolidinium acetate]: 1000.4
CC(=O)[O-].CCCCn1cc[n+](C)c1 [1-butyl-3-methylimidazolium acetate]: 1031
CC(=O)[O-].CCn1cc[nH+]c1 [1-ethyl-1H-imidazolium acetate]: 1004.1

###

COND: 323.15 K; 101.33 kPa; Liquid; Vibrating tube method
PARAMETER_MEASURED: mass density (kg/m3)

CC(=O)O.CCN(C)C [N,N-dimethylethanamine acetate]: 996.8
CC(=O)[O-].CCCCn1cc[n+](C)c1 [1-butyl-3-methylimidazolium acetate]: 1037
CC(=O)[O-].CCCC[N+]1(C)CCCC1 [1-butyl-1-methylpyrrolidinium acetate]: 1006.2
CC(=O)[O-].CCn1cc[nH+]c1 [1-ethyl-1H-imidazolium acetate]: 1012.7

###

COND: 343.15 K; 101.33 kPa; Liquid; Concentric cylinders viscometry
PARAMETER_MEASURED: viscosity (mPa·s)

I: CC(=O)O.CCN(C)C [N,N-dimethylethanamine acetate]
II: CC(=O)[O-].CCn1cc[nH+]c1 [1-ethyl-1H-imidazolium acetate]
III: CC(=O)[O-].CCCC[N+]1(C)CCCC1 [1-butyl-1-methylpyrrolidinium acetate]
IV: CC(=O)[O-].CCCCn1cc[n+](C)c1 [1-butyl-3-methylimidazolium acetate]
## Input Could you please sort these 4 entries by viscosity from high to low? Could you list the labels in the order requested?
## Output IV, III, I, II

###

PROTOCOL_TEXT: refractive index (Na D-line) (dimensionless)
COND: 328.15 K; 101.33 kPa; Liquid; Standard Abbe refractometry
PARAMETER_MEASURED: refractive index

CC(=O)[O-].CCCC[N+]1(C)CCCC1 [1-butyl-1-methylpyrrolidinium acetate]: 1.46178
CC(=O)O.CCN(C)C [N,N-dimethylethanamine acetate]: 1.4082
CC(=O)[O-].CCn1cc[n+](C)c1 [1-ethyl-3-methylimidazolium acetate]: 1.49171
CC(=O)[O-].CCn1cc[nH+]c1 [1-ethyl-1H-imidazolium acetate]: 1.44593
CC(=O)[O-].CCCCn1cc[n+](C)c1 [1-butyl-3-methylimidazolium acetate]: 1.47915

###

COND: 308.15 K; 101.33 kPa; Liquid; Concentric cylinders viscometry
PARAMETER_MEASURED: viscosity (mPa·s)

1: CC(=O)[O-].CCn1cc[nH+]c1 [1-ethyl-1H-imidazolium acetate]
2: CC(=O)[O-].CCCCn1cc[n+](C)c1 [1-butyl-3-methylimidazolium acetate]
3: CC(=O)[O-].CCCC[N+]1(C)CCCC1 [1-butyl-1-methylpyrrolidinium acetate]
4: CC(=O)O.CCN(C)C [N,N-dimethylethanamine acetate]
## Input Ordering criterion: viscosity; begin with the maximum. // list labels; follow requested order
## Output 2, 3, 4, 1
